Experiment: activity coefficient (dimensionless); of the first substance listed, at infinite dilution; xn = mol fraction of the nth substance listed
Details: 413 K; 101.3 kPa; Liquid; Open tubular Wall-Coated Column Chromatography; x1 = 0
observed.property: activity coefficient

Reference set, count: 2
{"columns": ["compound", "activity coefficient"],
 "data": [
  ["CC(C)(C)O [2-methylpropan-2-ol] + CC(=O)[O-].CCn1cc[n+](C)c1", 0.37],
  ["CCC(C)(C)O [2-methylbutan-2-ol] + CC(=O)[O-].CCn1cc[n+](C)c1", 0.49]
]}

[1] CC(C)O [propan-2-ol] + CC(=O)[O-].CCn1cc[n+](C)c1
[2] CCCO [propan-1-ol] + CC(=O)[O-].CCn1cc[n+](C)c1
Two entries are listed, 1 and 2 . Which one carries the higher activity coefficient? Kindly give the label for the entry you pick.
1

* * *

Assay: activity coefficient (dimensionless); of the first substance listed, at infinite dilution; xn = mol fraction of the nth substance listed
Settings: 353 K; 101.3 kPa; Liquid; open tubular wall-coated column chromatography; x1 = 0
observed.property: activity coefficient

[a] C1CCCCC1 [cyclohexane] + CC(=O)[O-].CCn1cc[n+](C)c1
[b] CCCCCC [hexane] + CC(=O)[O-].CCn1cc[n+](C)c1
[c] CC#N [acetonitrile] + CC(=O)[O-].CCn1cc[n+](C)c1
Which order do the items above take when sorted by activity coefficient from high to low? Rank them, then answer with their labels in that order.
b, a, c
(b: 70.6, a: 32.8, c: 0.77)

[A] C1CCOC1 [tetrahydrofuran] + CC(=O)[O-].CCn1cc[n+](C)c1
[B] CCOC(C)=O [ethyl acetate] + CC(=O)[O-].CCn1cc[n+](C)c1
[C] C1COCCO1 [1,4-dioxane] + CC(=O)[O-].CCn1cc[n+](C)c1
Could you please order the items by activity coefficient, going from the lowest number to the highest? Show the ranking through the labels, in the order asked for.
C, A, B
(C: 2.28, A: 3.63, B: 5.24)

* * *

Assay: activity coefficient (dimensionless); of the first substance listed, at infinite dilution; xn = mol fraction of the nth substance listed
Settings: 313 K; 101.3 kPa; Liquid; Open tubular Wall-Coated Column Chromatography; x1 = 0
observed.property: activity coefficient

As a guide, the following entries are already answered.
{"columns": ["compound", "observed.property", "numeric.readout"],
 "data": [
  ["CC(C)O [propan-2-ol] + CC(=O)[O-].CCn1cc[n+](C)c1", "activity coefficient", 0.08],
  ["CC(C)(C)O [2-methylpropan-2-ol] + CC(=O)[O-].CCn1cc[n+](C)c1", "activity coefficient", 0.16],
  ["CCCO [propan-1-ol] + CC(=O)[O-].CCn1cc[n+](C)c1", "activity coefficient", 0.06]
]}

[I] CCCCCCC [heptane] + CC(=O)[O-].CCn1cc[n+](C)c1
[II] COCCOC [1,2-dimethoxyethane] + CC(=O)[O-].CCn1cc[n+](C)c1
Field: lower recorded activity coefficient (choose I or II ) Select an item and report its label.
II

* * *

Test: activity coefficient (dimensionless); of the first substance listed, at infinite dilution; xn = mol fraction of the nth substance listed
Settings: 313 K; 101.3 kPa; Liquid; open tubular wall-coated column chromatography; x1 = 0
observed.property: activity coefficient

// solved cases for activity coefficient follow
{"columns": ["compound", "activity coefficient"],
 "data": [
  ["C1CCCCC1 [cyclohexane] + CC(=O)[O-].CCn1cc[n+](C)c1", 31.8],
  ["Cc1ccccc1 [toluene] + CC(=O)[O-].CCn1cc[n+](C)c1", 5.01],
  ["C1CCOC1 [tetrahydrofuran] + CC(=O)[O-].CCn1cc[n+](C)c1", 3.22]
]}

[I] CCOC(C)=O [ethyl acetate] + CC(=O)[O-].CCn1cc[n+](C)c1
[II] C=CCCCC [hex-1-ene] + CC(=O)[O-].CCn1cc[n+](C)c1
[III] CCCCCC [hexane] + CC(=O)[O-].CCn1cc[n+](C)c1
[IV] c1ccccc1 [benzene] + CC(=O)[O-].CCn1cc[n+](C)c1
Endpoint returns the given compounds ordered by ascending activity coefficient. Give the order by naming the labels one after another as requested.
IV, I, II, III
(IV: 2.8, I: 4.41, II: 36, III: 86.5)

Each recorded value in this set is attributed to the NIST ThermoML archive (doi:10.1016/j.jct.2011.11.005).
